Measured values drawn from the supplement of paper PMC3545927 for this set.

biological target: furin, P09958; assay: furin cleavage Z-score vs untreated control; higher = more cleavage, active = 3.5 or more, inactive = 1 or less, 8 variable residues between constant flanks; details: 7.5 min;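 further: purified furin at 1:10 enzyme:substrate in 50 mM HEPES pH 7.5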
Sequence (P09958 whole entry): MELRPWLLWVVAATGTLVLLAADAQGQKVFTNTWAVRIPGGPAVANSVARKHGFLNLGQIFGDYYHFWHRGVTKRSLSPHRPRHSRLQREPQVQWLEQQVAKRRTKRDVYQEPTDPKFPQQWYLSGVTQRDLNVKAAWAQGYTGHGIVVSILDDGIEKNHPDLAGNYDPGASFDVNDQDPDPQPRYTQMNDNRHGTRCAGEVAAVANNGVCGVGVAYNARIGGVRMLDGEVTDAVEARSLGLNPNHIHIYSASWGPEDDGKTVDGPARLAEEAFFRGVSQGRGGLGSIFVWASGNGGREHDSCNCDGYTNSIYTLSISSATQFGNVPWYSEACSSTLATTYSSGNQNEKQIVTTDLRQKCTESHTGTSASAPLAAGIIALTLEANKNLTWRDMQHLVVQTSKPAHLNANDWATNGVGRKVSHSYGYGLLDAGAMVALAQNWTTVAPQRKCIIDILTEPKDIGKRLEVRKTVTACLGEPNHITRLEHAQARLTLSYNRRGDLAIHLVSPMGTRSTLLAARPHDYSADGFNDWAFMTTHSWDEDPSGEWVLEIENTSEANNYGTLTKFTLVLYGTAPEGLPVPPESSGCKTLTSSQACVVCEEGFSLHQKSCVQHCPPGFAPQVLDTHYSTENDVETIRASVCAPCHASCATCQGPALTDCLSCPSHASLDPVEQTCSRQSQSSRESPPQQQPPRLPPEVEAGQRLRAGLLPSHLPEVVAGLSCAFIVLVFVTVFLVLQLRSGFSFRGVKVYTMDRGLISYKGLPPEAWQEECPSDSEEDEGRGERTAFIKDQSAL
The list shows a part of the results. The hit rate among all sequences tested is not known here.
Thanks in advance; please answer with one of these: active, inactive

Worked examples follow.
Inquiry: Given CARCRRCVVVAGNASASA [FS-2327] , state the outcome it received in this test.
Reply text: inactive

Inquiry: Please do the same for CAFTPSPVVVAGNASASA [HC415] as well.
Reply text: inactive

Inquiry: Now consider CAEVVTSTVVAGNASASA [HC2230] and answer again.
Reply text: inactive

Inquiry: Another sequence to check: CAEVTTSTWVAGNASASA [HC2198]
Reply text: inactive

Inquiry: Would you kindly repeat that for CARKKRSVVVAGNASASA [DV4] ?
Reply text: active

Consider now this further sequence.
Inquiry: Hi team, can someone confirm the assay call for CAPRKKRTVVAGNASASA [HC1324] ?
Reply text: active
